tested on: Acinetobacter baumannii NDM-1; assay: Antibiotic susceptibility testing (MIC), AB NDM-1; format: cell-based; conditions: agar or broth dilution (CLSI/EUCAST)

>  <molecule>
CNc1ccc(-c2c(C(=O)O)[nH]c3c([C@H](C)N4C[C@]5(C[C@@H](CN)C5)OC4=O)cccc23)cn1 [IC-36]

>  <study_target>
Acinetobacter baumannii NDM-1

>  <MIC values AB NDM-1>
B (B MIC values 2 ÷ 8)

$$$$
>  <molecule>
C[C@@H](c1cccc2c(-c3ccc(NS(C)(=O)=O)c(C#N)c3)c(C(=O)O)[nH]c12)N1C[C@]2(C[C@@H](CN)C2)OC1=O [IC-16]

>  <study_target>
Acinetobacter baumannii NDM-1

>  <MIC values AB NDM-1>
B (B MIC values 2 ÷ 8)

$$$$
>  <molecule>
C[C@@H](c1cccc2c(-c3cncc(O)c3)c(C(=O)O)[nH]c12)N1C[C@]2(C[C@@H](CN)C2)OC1=O [IC-23]

>  <study_target>
Acinetobacter baumannii NDM-1

>  <MIC values AB NDM-1>
B (B MIC values 2 ÷ 8)

$$$$
>  <molecule>
C[C@@H](c1cccc2c(-c3ccc(CS(C)(=O)=O)c(F)c3)c(C(=O)O)[nH]c12)n1cc(CN2CC(C)(N)C2)oc1=O [IC-68]

>  <study_target>
Acinetobacter baumannii NDM-1

>  <MIC values AB NDM-1>
B (B MIC values 2 ÷ 8)

$$$$
>  <molecule>
C[C@@H](c1cccc2c(-c3ccc(CS(C)(=O)=O)c(F)c3)c(C(=O)O)[nH]c12)N1C[C@]2(C[C@H](CN)C2)OC1=O [IC-61]

>  <study_target>
Acinetobacter baumannii NDM-1

>  <MIC values AB NDM-1>
B (B MIC values 2 ÷ 8)

$$$$
